compound	melting point
CCOc1cccc(C2NC(=O)NC=C2C(=O)c2ccc(N3CCNCC3)cc2)c1 (centres unmarked) [DHPM-10]	88 to 90 °C
O=C1NC=C(C(=O)c2ccc(N3CCOCC3)cc2)C(c2ccc(Cl)cc2)N1 (centres unmarked) [DHPM-15]	288 to 290 °C
O=C1NC=C(C(=O)c2ccc(N3CCOCC3)cc2)C(c2cccc([N+](=O)[O-])c2)N1 (centres unmarked) [DHPM-14]	205 to 207 °C
COc1cccc(C2NC(=O)NC=C2C(=O)c2ccc(N3CCNCC3)cc2)c1 (centres unmarked) [DHPM-9]	118 to 120 °C
O=C1NC=C(C(=O)c2ccc(N3CCNCC3)cc2)C(c2ccc([N+](=O)[O-])cc2)N1 (centres unmarked) [DHPM-3]	175 to 177 °C
O=C1NC=C(C(=O)c2ccc(N3CCOCC3)cc2)C(c2ccccc2[N+](=O)[O-])N1 (centres unmarked) [DHPM-12]	198 to 200 °C
O=C1NC=C(C(=O)c2ccc(N3CCOCC3)cc2)C(c2ccc(O)cc2)N1 (centres unmarked) [DHPM-17]	118 to 120 °C
O=C1NC=C(C(=O)c2ccc(N3CCNCC3)cc2)C(c2ccc(O)cc2)N1 (centres unmarked) [DHPM-7]	210 to 212 °C
O=C1NC=C(C(=O)c2ccc(N3CCNCC3)cc2)C(c2ccc(Cl)cc2)N1 (centres unmarked) [DHPM-5]	160 to 162 °C
CCOc1ccc(C2NC(=O)NC=C2C(=O)c2ccc(N3CCOCC3)cc2)cc1 (centres unmarked) [DHPM-20]	200 to 202 °C
O=C1NC=C(C(=O)c2ccc(N3CCOCC3)cc2)C(c2ccc([N+](=O)[O-])cc2)N1 (centres unmarked) [DHPM-13]	202 to 204 °C
COc1ccccc1C1NC(=O)NC=C1C(=O)c1ccc(N2CCOCC2)cc1 (centres unmarked) [DHPM-16]	178 to 180 °C
O=C1NC=C(C(=O)c2ccc(N3CCNCC3)cc2)C(c2cccc(O)c2)N1 (centres unmarked) [DHPM-8]	158 to 160 °C
O=C1NC=C(C(=O)c2ccc(N3CCNCC3)cc2)C(c2ccccc2)N1 (centres unmarked) [DHPM-1]	150 to 152 °C
